Measured Deactivation Δλ/λcon, listed per entry.
Target: hERG1 (Homo sapiens)
Construct: expressed in transfected cells; host or cells: HEK 293
Test: Whole cell patch-clamp of hERG1 currents in transfected HEK 293 cells
Assay type: cell-based
Conditions: Conc. 50 µM; deactivation time constant relative to baseline
API doc: respond with a numeric literal and nothing else, no unit.

O=C1NC(=O)c2cc(C(F)(F)F)ccc21 = 0.2
CN(C(=O)c1cc(C(F)(F)F)ccc1Cl)c1ccccc1 = −0.2

Input O=C(Nc1ccccc1)C1C(=O)Nc2ccccc21 (stereo not drawn) . Output Deactivation Δλ/λcon: 0.2

###

Target: hERG1 (Homo sapiens, UniProt Q12809)
Construct: expressed in transfected cells; host or cells: HEK 293
Sequence (Q12809 whole entry): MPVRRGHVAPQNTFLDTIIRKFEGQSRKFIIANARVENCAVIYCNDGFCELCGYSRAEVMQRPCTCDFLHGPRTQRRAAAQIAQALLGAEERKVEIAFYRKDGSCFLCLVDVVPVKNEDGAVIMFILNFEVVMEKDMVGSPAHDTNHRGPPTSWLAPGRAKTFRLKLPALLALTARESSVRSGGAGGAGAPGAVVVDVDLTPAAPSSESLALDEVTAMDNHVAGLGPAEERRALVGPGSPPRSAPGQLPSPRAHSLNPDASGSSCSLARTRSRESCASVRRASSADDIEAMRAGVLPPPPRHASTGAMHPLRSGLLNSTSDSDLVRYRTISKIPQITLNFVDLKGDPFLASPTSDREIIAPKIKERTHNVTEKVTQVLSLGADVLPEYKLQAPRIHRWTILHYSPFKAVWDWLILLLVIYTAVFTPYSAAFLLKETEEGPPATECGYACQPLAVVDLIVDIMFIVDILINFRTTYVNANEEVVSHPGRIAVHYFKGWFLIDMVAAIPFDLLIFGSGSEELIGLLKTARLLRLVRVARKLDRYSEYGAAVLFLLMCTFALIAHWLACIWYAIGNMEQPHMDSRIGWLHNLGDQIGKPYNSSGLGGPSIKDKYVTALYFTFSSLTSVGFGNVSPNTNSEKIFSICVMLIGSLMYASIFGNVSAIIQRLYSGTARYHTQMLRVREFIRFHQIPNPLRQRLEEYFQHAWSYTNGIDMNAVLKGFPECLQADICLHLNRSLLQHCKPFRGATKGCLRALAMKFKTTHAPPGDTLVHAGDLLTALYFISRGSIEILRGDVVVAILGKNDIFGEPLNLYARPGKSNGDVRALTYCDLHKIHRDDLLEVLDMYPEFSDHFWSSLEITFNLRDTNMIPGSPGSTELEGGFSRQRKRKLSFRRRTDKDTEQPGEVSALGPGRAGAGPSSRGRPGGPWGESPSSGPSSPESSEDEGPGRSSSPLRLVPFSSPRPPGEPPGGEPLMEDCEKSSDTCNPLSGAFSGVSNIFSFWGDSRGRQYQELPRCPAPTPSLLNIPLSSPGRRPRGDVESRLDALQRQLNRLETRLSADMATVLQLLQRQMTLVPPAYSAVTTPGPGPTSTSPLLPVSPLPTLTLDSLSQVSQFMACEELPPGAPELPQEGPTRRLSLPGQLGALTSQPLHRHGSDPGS
Test: Whole cell patch-clamp of hERG1 currents in transfected HEK 293 cells
Assay type: cell-based
Set-up: unit not given here
Conditions: Conc. 20 µM; shift in voltage-dependence of inactivation
measured-quantity: Inactivation ΔV0.3
API doc: respond with a numeric literal and nothing else, no unit.

C[C@H](NC(=O)c1ccccc1)C(=O)NC(=O)Nc1cc(C(F)(F)F)ccc1O = −2.5

Input COCOc1ccc(C(F)(F)F)cc1NC(=O)NC(=O)[C@H](C)NC(=O)c1ccccc1 . Output Inactivation ΔV0.3: −1.5

Input C[C@H](NCc1ccccc1)C(=O)NC(=O)Nc1cc(C(F)(F)F)ccc1O . Output Inactivation ΔV0.3: −21

Input COCOc1ccc(C(F)(F)F)cc1NC(=O)NC(=O)[C@H](C)NCc1ccc(F)cc1 . Output Inactivation ΔV0.3: −4

Input C[C@H](NCc1ccc(F)cc1)C(=O)NC(=O)Nc1cc(C(F)(F)F)ccc1O . Output Inactivation ΔV0.3: −7.5

Input COCOc1ccc(C(F)(F)F)cc1NC(=O)NC(=O)[C@H](C)NCc1ccc(Br)cc1 . Output Inactivation ΔV0.3: −3.5

###

Measured Amplitude I/Icon, listed per entry.
Target: hERG1 (Homo sapiens)
Construct: expressed in transfected cells; host or cells: HEK 293
Assay: Whole cell patch-clamp of hERG1 currents in transfected HEK 293 cells
Format: cell-based
Settings: Conc. 50 µM; tail current relative to baseline

Check out these entries, answers already filled in.
CN(C(=O)c1cc(C(F)(F)F)ccc1Cl)c1ccccc1 = 0.7±0.06
C[C@H](NCc1ccc(C(F)(F)F)cc1)C(=O)NC(=O)Nc1cc(C(F)(F)F)ccc1O = 0.83±0.1
COCOc1ccc(C(F)(F)F)cc1NC(=O)NC(=O)[C@H](C)N = 0.3±0.02
COCOc1ccc(C(F)(F)F)cc1NC(=O)NC(=O)[C@H](C)N(Cc1ccccc1)Cc1ccccc1 = 0.95±0.03
O=C(Nc1ccccc1)C1C(=O)Nc2ccccc21 (centres unmarked) = 0.8±0.03

Input COCOc1ccc(C(F)(F)F)cc1NC(N)=O . Output Amplitude I/Icon: 0.9±0.04

Input O=C1NC(=O)c2cc(C(F)(F)F)ccc21 . Output Amplitude I/Icon: 1.0±0.01

###

Target: hERG1 (Homo sapiens, UniProt Q12809)
Construct: expressed in transfected cells; host or cells: HEK 293
Assay: Whole cell patch-clamp of hERG1 currents in transfected HEK 293 cells
Assay type: cell-based
Settings: Conc. 20 µM; deactivation time constant relative to baseline
Measured Deactivation Δλ/λcon, listed per entry.
API doc: respond with a numeric literal and nothing else, no unit.

C[C@H](NCc1ccc(F)cc1)C(=O)NC(=O)Nc1cc(C(F)(F)F)ccc1O = 1.7
C[C@H](NCc1ccc(Br)cc1)C(=O)NC(=O)Nc1cc(C(F)(F)F)ccc1O = 3.1

Input COCOc1ccc(C(F)(F)F)cc1NC(=O)NC(=O)[C@H](C)NCc1ccc(C(F)(F)F)cc1 . Output Deactivation Δλ/λcon: 0.5

Input COCOc1ccc(C(F)(F)F)cc1NC(=O)NC(=O)[C@H](C)NC(=O)c1ccccc1 . Output Deactivation Δλ/λcon: −0.1

Input C[C@H](NCc1ccc(C(F)(F)F)cc1)C(=O)NC(=O)Nc1cc(C(F)(F)F)ccc1O . Output Deactivation Δλ/λcon: 3.5

Input COCOc1ccc(C(F)(F)F)cc1NC(=O)NC(=O)[C@H](C)NCc1ccc(Br)cc1 . Output Deactivation Δλ/λcon: −0.1

Input C[C@H](NS(=O)(=O)c1ccc(N)cc1)C(=O)NC(=O)Nc1cc(C(F)(F)F)ccc1O . Output Deactivation Δλ/λcon: 0.3

Input COCOc1ccc(C(F)(F)F)cc1NC(=O)NC(=O)[C@H](C)NCc1ccc(F)cc1 . Output Deactivation Δλ/λcon: −0.1

###

Target: hERG1 (Homo sapiens)
Construct: expressed in transfected cells; host or cells: HEK 293
Experiment: Whole cell patch-clamp of hERG1 currents in transfected HEK 293 cells
Type: cell-based
Details: Conc. 20 µM; tail current relative to baseline
Measured Amplitude I/Icon, listed per entry.
API doc: respond with a numeric literal and nothing else, no unit.

Check out these entries, answers already filled in.
C[C@H](NCc1ccccc1)C(=O)NC(=O)Nc1cc(C(F)(F)F)ccc1O = 0.4
C[C@H](NCc1ccc(Br)cc1)C(=O)NC(=O)Nc1cc(C(F)(F)F)ccc1O = 0.6

Input COCOc1ccc(C(F)(F)F)cc1NC(=O)NC(=O)[C@H](C)NCc1ccc(F)cc1 . Output Amplitude I/Icon: 0.1

Input C[C@H](NCc1ccc(F)cc1)C(=O)NC(=O)Nc1cc(C(F)(F)F)ccc1O . Output Amplitude I/Icon: 0.6

###

Target: hERG1 (Homo sapiens)
Construct: expressed in transfected cells; host or cells: HEK 293
Test: Whole cell patch-clamp of hERG1 currents in transfected HEK 293 cells
Assay type: cell-based
Conditions: Conc. 10 µM; deactivation time constant relative to baseline
Description: Transfected HEK cells on glass cover slips were placed in a chamber mounted on a modified stage of an inverted microscope. The chamber was superfused at a rate of 2 mL/min with a normal external solution. The extracellular solution contained (in mM) NaCl 140, KCl 5.4, CaCl2 1, MgCl2 1, HEPES 5, glucose 5.5, pH 7.4, with NaOH. […] Unless otherwise indicated, tail currents were recorded when the voltage was returned to −50 mV from +50 mV. […]
Mark Criterion not met for Deactivation Δλ/λcon values under 0.07, and Criterion met for everything at or above.

C[C@H](NCc1ccc(C(F)(F)F)cc1)C(=O)NC(=O)Nc1cc(C(F)(F)F)ccc1O = Criterion met
COCOc1ccc(C(F)(F)F)cc1NC(=O)NC(=O)[C@H](C)NS(=O)(=O)c1ccc([N+](=O)[O-])cc1 = Criterion not met
O=C(Nc1cc(C(F)(F)F)ccc1O)Nc1cc(C(F)(F)F)ccc1O = Criterion met

# ---- query molecule ----
Test whether the molecule COCOc1ccc(C(F)(F)F)cc1NC(=O)NC(=O)[C@H](C)N records Deactivation Δλ/λcon of 0.07 or higher.
Criterion not met

###

Target: hERG1 (Homo sapiens)
Construct: expressed in transfected cells; host or cells: HEK 293
Experiment: Whole cell patch-clamp of hERG1 currents in transfected HEK 293 cells
Assay type: cell-based
Conditions: Conc. 20 µM; deactivation time constant relative to baseline
Measured Deactivation Δλ/λcon, listed per entry.
API doc: respond with a numeric literal and nothing else, no unit.

Check out these entries, answers already filled in.
C[C@H](NC(=O)c1ccccc1)C(=O)NC(=O)Nc1cc(C(F)(F)F)ccc1O = 0.8
C[C@H](NCc1ccccc1)C(=O)NC(=O)Nc1cc(C(F)(F)F)ccc1O = 0.6

Fill in: hERG1 (Homo sapiens) Deactivation Δλ/λcon for C[C@H](NC(=O)c1ccc([N+](=O)[O-])cc1)C(=O)NC(=O)Nc1cc(C(F)(F)F)ccc1O = 0.6

Fill in: hERG1 (Homo sapiens) Deactivation Δλ/λcon for COCOc1ccc(C(F)(F)F)cc1NC(=O)NC(=O)[C@H](C)NC(=O)c1ccc([N+](=O)[O-])cc1 = −0.1

###

Target: hERG1 (Homo sapiens, UniProt Q12809)
Construct: expressed in transfected cells; host or cells: HEK 293
Assay: Whole cell patch-clamp of hERG1 currents in transfected HEK 293 cells
Type: cell-based
Settings: Conc. 10 µM; tail current relative to baseline
measured-quantity: Amplitude I/Icon
API doc: respond with a numeric literal and nothing else, no unit.

Check out these entries, answers already filled in.
COCOc1ccc(C(F)(F)F)cc1NC(=O)NC(=O)[C@H](C)NS(=O)(=O)c1ccc([N+](=O)[O-])cc1 = 0.7
C[C@H](NCc1ccc(C(F)(F)F)cc1)C(=O)NC(=O)Nc1cc(C(F)(F)F)ccc1O = 0.88
COCOc1ccc(C(F)(F)F)cc1NC(=O)NC(=O)[C@H](C)N = 0.6

Input O=C(Nc1cc(C(F)(F)F)ccc1O)Nc1cc(C(F)(F)F)ccc1O . Output Amplitude I/Icon: 1

###

Biological target: hERG1 (Homo sapiens, UniProt Q12809)
Construct: expressed in transfected cells; host or cells: HEK 293
Assay: Whole cell patch-clamp of hERG1 currents in transfected HEK 293 cells
Format: cell-based
Design: unit not given here
Details: Conc. 50 µM; shift in voltage-dependence of inactivation
Mark not fulfilled for Inactivation ΔV0.3 values under 0.7, and fulfilled for everything at or above.

Test whether the molecule O=C1NC(=O)c2cc(C(F)(F)F)ccc21 [Compound 23] records Inactivation ΔV0.3 of 0.7 or higher.
not fulfilled

Test whether the molecule C[C@H](NCc1ccc(C(F)(F)F)cc1)C(=O)NC(=O)Nc1cc(C(F)(F)F)ccc1O [Compound 5] records Inactivation ΔV0.3 of 0.7 or higher.
fulfilled

Test whether the molecule C[C@H](NS(=O)(=O)c1ccc([N+](=O)[O-])cc1)C(=O)NC(=O)Nc1cc(C(F)(F)F)ccc1O [Compound 14] records Inactivation ΔV0.3 of 0.7 or higher.
fulfilled

Test whether the molecule O=C(Nc1ccccc1)C1C(=O)Nc2ccccc21 (centres unmarked) [Compound 24] records Inactivation ΔV0.3 of 0.7 or higher.
fulfilled

Test whether the molecule CN(C(=O)c1cccc(C(F)(F)F)c1)c1ccccc1 [Compound 18] records Inactivation ΔV0.3 of 0.7 or higher.
not fulfilled

Test whether the molecule CN(C(=O)c1cc(C(F)(F)F)ccc1Cl)c1ccccc1 [Compound 19] records Inactivation ΔV0.3 of 0.7 or higher.
not fulfilled

Test whether the molecule COCOc1ccc(C(F)(F)F)cc1NC(=O)Oc1ccccc1 [Compound 22] records Inactivation ΔV0.3 of 0.7 or higher.
not fulfilled

Test whether the molecule COCOc1ccc(C(F)(F)F)cc1NC(=O)NC(=O)[C@H](C)N [Compound 16] records Inactivation ΔV0.3 of 0.7 or higher.
not fulfilled

Each recorded value in this set is attributed to paper PMC4156305.
